biological target: hDAT (Homo sapiens, UniProt Q01959); construct: expressed in transfected cells; host or cells: HEK-293 cells stably expressing recombinant hDAT; test: [3H]DA uptake in HEK hDAT cells; type: cell-based; conditions: Table II; read-out: [3H]DA Uptake in HEK hDAT cells IC50 (nM) sem
Sequence (Q01959 whole entry): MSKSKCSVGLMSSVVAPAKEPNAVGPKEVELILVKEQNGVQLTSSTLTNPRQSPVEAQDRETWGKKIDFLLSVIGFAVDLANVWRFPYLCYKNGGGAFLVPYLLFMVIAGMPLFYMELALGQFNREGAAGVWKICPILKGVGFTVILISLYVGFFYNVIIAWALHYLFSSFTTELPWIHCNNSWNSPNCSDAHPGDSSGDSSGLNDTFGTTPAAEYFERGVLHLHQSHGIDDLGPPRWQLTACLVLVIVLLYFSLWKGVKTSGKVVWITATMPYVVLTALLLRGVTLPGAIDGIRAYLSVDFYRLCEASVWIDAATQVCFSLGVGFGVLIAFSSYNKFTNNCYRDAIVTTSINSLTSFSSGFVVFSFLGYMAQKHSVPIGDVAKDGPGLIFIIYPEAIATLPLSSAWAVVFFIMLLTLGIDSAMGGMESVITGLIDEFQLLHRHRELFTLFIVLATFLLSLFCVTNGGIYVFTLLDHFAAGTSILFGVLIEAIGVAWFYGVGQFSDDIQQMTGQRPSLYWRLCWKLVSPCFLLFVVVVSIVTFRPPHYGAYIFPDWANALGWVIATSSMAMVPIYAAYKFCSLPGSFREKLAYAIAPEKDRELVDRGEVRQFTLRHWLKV
Decision: IC50 beneath 2000 nM gives satisfied; IC50 meeting or exceeding 2000 nM gives not satisfied.

Please review the entries below; each comes with its answer.
MOLECULE	LABEL
CN(CCC=C1c2ccccc2CCc2ccccc21)C(/C=C/c1ccccc1)C(=O)O (centres unmarked) [RNH-Z-44]	satisfied
O=C(O)C(/C=C/c1ccccc1)N1CCN(CCOC(c2ccccc2)c2ccccc2)CC1 (centres unmarked) [ZHN-94]	satisfied
O=C(O)C(/C=C/c1ccccc1)C1CCN(CCOC(c2ccc(F)cc2)c2ccc(F)cc2)CC1 (centres unmarked) [ZHN-93]	satisfied

Here's the next entry for you.
Hello, I'm reviewing records and need to know if IC50 of CN(C)C(=O)C(/C=C/c1ccccc1)N1CCC(c2ccccc2)CC1 (centres unmarked) [RNH-Z-28] is below 2000 nM. Could you check? not satisfied

The origin of these recorded values is patent US7141573B2.
